Each item that follows carries a reported Bliss excess.
- Test system: LOUCY (T-Lymphoblastic Leukemia)
- Measurement Protocol: Bliss excess, mean over the matrix (fraction); higher = more synergy
Observable: Bliss excess

- Cc1c2c(nn1C)CSCc1cc(n(C)n1)CSc1cc(c3ccccc3c1)OCCCc1c(C(=O)O)n(C)c3c-2c(Cl)ccc13 [AZD5991] + CN(C)CCCOc1ccc(-c2ccc3ncc4c(c3c2)n(C2CCOCC2)c(=O)n4C)cn1 [AZD0156] (first compound max 1 µM, 7x7, partner max 1 µM): 0.0428
- CS(=O)(=O)CCNCc1ccc(-c2ccc3ncnc(Nc4ccc(OCc5cccc(F)c5)c(Cl)c4)c3c2)o1 [Lapatinib] + C[C@@H](Oc1cc(-c2cnn(C3CCNCC3)c2)cnc1N)c1c(Cl)ccc(F)c1Cl [Crizotinib] (first compound max 10 µM, 7x7, partner max 10 µM): -0.102

====

- Tested on: HuO-3N1 (Osteosarcoma)
- Measurement Protocol: Bliss excess, mean over the matrix (fraction); higher = more synergy
Listing: Bliss excess of selected molecules
Observable: Bliss excess

- Cc1c2c(nn1C)CSCc1cc(n(C)n1)CSc1cc(c3ccccc3c1)OCCCc1c(C(=O)O)n(C)c3c-2c(Cl)ccc13 [AZD5991] + CN(C)CCCOc1ccc(-c2ccc3ncc4c(c3c2)n(C2CCOCC2)c(=O)n4C)cn1 [AZD0156] (first compound max 1 µM, 7x7, partner max 1 µM): -0.0067
- COc1cccc(OCCCN)c1-c1cc(Nc2cnc(C#N)cn2)n[nH]1 [Prexasertib] + CCc1c2c(nc3ccc(O)cc13)-c1cc3c(c(=O)n1C2)COC(=O)[C@]3(O)CC [SN-38] (first compound max 1 µM, 7x7, partner max 0.3 µM): -0.0105
- C=CCn1c(=O)c2cnc(Nc3ccc(N4CCN(C)CC4)cc3)nc2n1-c1cccc(C(C)(C)O)n1 [AZD1775] + C1CN(CCC1(C(=O)N[C@@H](CCO)C2=CC=C(C=C2)Cl)N)C3=NC=NC4=C3C=CN4 [Capivasertib] (first compound max 3 µM, partner max 3 µM): -0.0033
- Cc1c2c(nn1C)CSCc1cc(n(C)n1)CSc1cc(c3ccccc3c1)OCCCc1c(C(=O)O)n(C)c3c-2c(Cl)ccc13 [AZD5991] + Cn1cnc2c(F)c(Nc3ccc(Br)cc3Cl)c(C(=O)NOCCO)cc21 [Selumetinib] (first compound max 1 µM, 7x7, partner max 3 µM): -0.0008
- CN(C)CCCOc1ccc(-c2ccc3ncc4c(c3c2)n(C2CCOCC2)c(=O)n4C)cn1 [AZD0156] + C=CCn1c(=O)c2cnc(Nc3ccc(N4CCN(C)CC4)cc3)nc2n1-c1cccc(C(C)(C)O)n1 [AZD1775] (first compound max 1 µM, partner max 1 µM): -0.0505
- CC1(C)CCC(CN2CCN(c3ccc(C(=O)NS(=O)(=O)c4ccc(NCC5CCOCC5)c([N+](=O)[O-])c4)c(Oc4cnc5[nH]ccc5c4)c3)CC2)=C(c2ccc(Cl)cc2)C1 [Venetoclax] + C1CN(CCC1(C(=O)N[C@@H](CCO)C2=CC=C(C=C2)Cl)N)C3=NC=NC4=C3C=CN4 [Capivasertib] (first compound max 1 µM, 7x7, partner max 3 µM): -0.0347
- CN(CCO)CC[C@H](CSc1ccccc1)Nc1ccc(S(=O)(=O)NC(=O)c2ccc(N3CCC([C@@H](O)c4ccccc4-c4ccc(Cl)cc4)CC3)cc2)cc1S(=O)(=O)C(F)(F)F [AZD4320] + CCN(CCO)CCCOc1ccc2c(Nc3cc(CC(=O)Nc4cccc(F)c4)[nH]n3)ncnc2c1 [AZD2811] (first compound max 1 µM, 7x7, partner max 1 µM): -0.0051

====

Attribute: combination Emax
- Test system: HuO-3N1 (Osteosarcoma)
- Measurement Protocol: combination Emax (second highest fraction inhibited in the dose matrix, 72 h); higher = more inhibition; extreme values may be limits of the assay
Observable: combination Emax

- Cc1cc2ncnn2cc1Nc1ncc2c(n1)n(C1CCOCC1)c(=O)n2C [AZD7648] + C[C@@H]1COCCN1C2=NC(=NC(=C2)C3(CC3)[S@](=N)(=O)C)C4=C5C=CNC5=NC=C4 [AZD6738] (first compound max 10 µM, 7x7, partner max 10 µM): 0.331
- Cn1cnc2c(F)c(Nc3ccc(Br)cc3Cl)c(C(=O)NOCCO)cc21 [Selumetinib] + C[C@@H]1COCCN1C2=NC(=NC(=C2)C3(CC3)[S@](=N)(=O)C)C4=C5C=CNC5=NC=C4 [AZD6738] (first compound max 10 µM, 7x7, partner max 10 µM): 0.22

====

compounds and their reported Bliss excess
- Tested on: JHH-1 (Hepatocellular Carcinoma)
- Measurement Protocol: Bliss excess, mean over the matrix (fraction); higher = more synergy
Observable: Bliss excess

* Cn1cnc2c(F)c(Nc3ccc(Br)cc3Cl)c(C(=O)NOCCO)cc21 [Selumetinib] + CCN(CCO)CCCOc1ccc2c(Nc3cc(CC(=O)Nc4cccc(F)c4)[nH]n3)ncnc2c1 [AZD2811] (first compound max 10 µM, 7x7, partner max 1 µM) | -0.0327
* COc1nnc2ccc(N3CCC(c4ccc(OCCN5CCN(C)C(=O)[C@H]5C)cc4)CC3)nn12 [AZD5153] + Cn1cnc2c(F)c(Nc3ccc(Br)cc3Cl)c(C(=O)NOCCO)cc21 [Selumetinib] (first compound max 1 µM, 7x7, partner max 10 µM) | 0.0139
* COc1nnc2ccc(N3CCC(c4ccc(OCCN5CCN(C)C(=O)[C@H]5C)cc4)CC3)nn12 [AZD5153] + CN(CC[C@H](CSC1=CC=CC=C1)NC2=C(C=C(C=C2)S(=O)(=O)NC(=O)C3=CC=C(C=C3)N4CCC(CC4)[C@H](C5=CC=CC=C5C6=CC=C(C=C6)Cl)O)S(=O)(=O)C(F)(F)F)CCO [AZD4320] (first compound max 1 µM, 7x7, partner max 1 µM) | 0.0585

====

Parameter: Bliss excess. Scope: all listed entries.
- System: HTC-C3 (Thyroid Gland Carcinoma)
- Measurement Protocol: Bliss excess, mean over the matrix (fraction); higher = more synergy
Observable: Bliss excess

- CN(CCO)CC[C@H](CSc1ccccc1)Nc1ccc(S(=O)(=O)NC(=O)c2ccc(N3CCC([C@@H](O)c4ccccc4-c4ccc(Cl)cc4)CC3)cc2)cc1S(=O)(=O)C(F)(F)F [AZD4320] + CCN(CCO)CCCOc1ccc2c(Nc3cc(CC(=O)Nc4cccc(F)c4)[nH]n3)ncnc2c1 [AZD2811] (first compound max 1 µM, 7x7, partner max 1 µM): -0.0348
- Cc1nc(Nc2ncc(C(=O)Nc3c(C)cccc3Cl)s2)cc(N2CCN(CCO)CC2)n1 [Dasatinib] + CC(=O)Nc1cccc(-n2c(=O)n(C3CC3)c(=O)c3c(Nc4ccc(I)cc4F)n(C)c(=O)c(C)c32)c1 [Trametinib] (first compound max 2 µM, 7x7, partner max 1 µM): -0.0093
- Cc1cc2ncnn2cc1Nc1ncc2c(n1)n(C1CCOCC1)c(=O)n2C [AZD7648] + C[C@@H]1COCCN1C2=NC(=NC(=C2)C3(CC3)[S@](=N)(=O)C)C4=C5C=CNC5=NC=C4 [AZD6738] (first compound max 10 µM, 7x7, partner max 10 µM): 0.0229
- CCN(CCO)CCCOc1ccc2c(Nc3cc(CC(=O)Nc4cccc(F)c4)[nH]n3)ncnc2c1 [AZD2811] + O=C(c1cc(Cc2n[nH]c(=O)c3ccccc23)ccc1F)N1CCN(C(=O)C2CC2)CC1 [Olaparib] (first compound max 1 µM, 7x7, partner max 10 µM): -0.0101

====

- System: PC-14 (Lung Adenocarcinoma)
- Measurement Protocol: Bliss excess, mean over the matrix (fraction); higher = more synergy
Binary call on Bliss excess: criterion met from 0.02 upward, criterion not met beneath that.

• COc1cc2ncnc(Nc3ccc(F)c(Cl)c3)c2cc1OCCCN1CCOCC1 [Gefitinib] + CC(C)n1c(=O)n(C)c2cnc3cc(F)c(-c4ccc(OCCCN5CCCCC5)nc4)cc3c21 [AZD1390] (first compound max 10 µM, 7x7, partner max 0.3 µM) = criterion not met
• C[C@@H](c1ccc2nccn2c1)n1nnc2ncc(-c3cnn(C)c3)nc21 [Savolitinib] + CN(CC[C@H](CSC1=CC=CC=C1)NC2=C(C=C(C=C2)S(=O)(=O)NC(=O)C3=CC=C(C=C3)N4CCC(CC4)[C@H](C5=CC=CC=C5C6=CC=C(C=C6)Cl)O)S(=O)(=O)C(F)(F)F)CCO [AZD4320] (first compound max 1 µM, 7x7, partner max 1 µM) = criterion not met
• CN(CCO)CC[C@H](CSc1ccccc1)Nc1ccc(S(=O)(=O)NC(=O)c2ccc(N3CCC([C@@H](O)c4ccccc4-c4ccc(Cl)cc4)CC3)cc2)cc1S(=O)(=O)C(F)(F)F [AZD4320] + CS(=O)(=O)CCNCc1ccc(-c2ccc3ncnc(Nc4ccc(OCc5cccc(F)c5)c(Cl)c4)c3c2)o1 [Lapatinib] (first compound max 1 µM, 7x7, partner max 10 µM) = criterion not met
• C=CCn1c(=O)c2cnc(Nc3ccc(N4CCN(C)CC4)cc3)nc2n1-c1cccc(C(C)(C)O)n1 [AZD1775] + O=C(c1cc(Cc2n[nH]c(=O)c3ccccc23)ccc1F)N1CCN(C(=O)C2CC2)CC1 [Olaparib] (first compound max 1 µM, partner max 10 µM) = criterion not met
• CC1(C)CCC(CN2CCN(c3ccc(C(=O)NS(=O)(=O)c4ccc(NCC5CCOCC5)c([N+](=O)[O-])c4)c(Oc4cnc5[nH]ccc5c4)c3)CC2)=C(c2ccc(Cl)cc2)C1 [Venetoclax] + Cc1cc2ncnn2cc1Nc1ncc2c(n1)n(C1CCOCC1)c(=O)n2C [AZD7648] (first compound max 1 µM, 7x7, partner max 10 µM) = criterion not met
• N#Cc1cnc(Nc2cc(NC[C@H]3CNCCO3)c(C(F)(F)F)cn2)cn1 [SRA737] + Nc1ccn([C@@H]2O[C@H](CO)[C@@H](O)C2(F)F)c(=O)n1 [Gemcitabine] (first compound max 10 µM, 7x7, partner max 0.3 µM) = criterion not met
• CN(CCO)CC[C@H](CSc1ccccc1)Nc1ccc(S(=O)(=O)NC(=O)c2ccc(N3CCC([C@@H](O)c4ccccc4-c4ccc(Cl)cc4)CC3)cc2)cc1S(=O)(=O)C(F)(F)F [AZD4320] + Cc1cc2ncnn2cc1Nc1ncc2c(n1)n(C1CCOCC1)c(=O)n2C [AZD7648] (first compound max 1 µM, 7x7, partner max 10 µM) = criterion not met
• CCc1c2c(nc3ccc(O)cc13)-c1cc3c(c(=O)n1C2)COC(=O)[C@]3(O)CC [SN-38] + O=C(c1cc(Cc2n[nH]c(=O)c3ccccc23)ccc1F)N1CCN(C(=O)C2CC2)CC1 [Olaparib] (first compound max 0.3 µM, 7x7, partner max 10 µM) = criterion met
• Cc1c2c(nn1C)CSCc1cc(n(C)n1)CSc1cc(c3ccccc3c1)OCCCc1c(C(=O)O)n(C)c3c-2c(Cl)ccc13 [AZD5991] + Nc1ccn([C@@H]2O[C@H](CO)[C@@H](O)C2(F)F)c(=O)n1 [Gemcitabine] (first compound max 1 µM, 7x7, partner max 0.3 µM) = criterion not met
• CS(=O)(=O)CCNCc1ccc(-c2ccc3ncnc(Nc4ccc(OCc5cccc(F)c5)c(Cl)c4)c3c2)o1 [Lapatinib] + NC1(c2ccc(-c3nc4ccn5c(=O)[nH]nc5c4cc3-c3ccccc3)cc2)CCC1 [MK-2206] (first compound max 10 µM, 7x7, partner max 10 µM) = criterion not met
• Cn1cnc2c(F)c(Nc3ccc(Br)cc3Cl)c(C(=O)NOCCO)cc21 [Selumetinib] + CCN(CCO)CCCOc1ccc2c(Nc3cc(CC(=O)Nc4cccc(F)c4)[nH]n3)ncnc2c1 [AZD2811] (first compound max 10 µM, 7x7, partner max 1 µM) = criterion met
• CC1(C)CCC(CN2CCN(c3ccc(C(=O)NS(=O)(=O)c4ccc(NCC5CCOCC5)c([N+](=O)[O-])c4)c(Oc4cnc5[nH]ccc5c4)c3)CC2)=C(c2ccc(Cl)cc2)C1 [Venetoclax] + C1CN(CCC1(C(=O)N[C@@H](CCO)C2=CC=C(C=C2)Cl)N)C3=NC=NC4=C3C=CN4 [Capivasertib] (first compound max 1 µM, 7x7, partner max 3 µM) = criterion not met

Source of measurements: the supplement of paper PMC11061612
